This collection of values is drawn from paper PMC8809517.

Target: T1, GFP-9S library array, motif 4 ND N98S;D124V (synthetic construct, N98S;D124V)
T1 chain: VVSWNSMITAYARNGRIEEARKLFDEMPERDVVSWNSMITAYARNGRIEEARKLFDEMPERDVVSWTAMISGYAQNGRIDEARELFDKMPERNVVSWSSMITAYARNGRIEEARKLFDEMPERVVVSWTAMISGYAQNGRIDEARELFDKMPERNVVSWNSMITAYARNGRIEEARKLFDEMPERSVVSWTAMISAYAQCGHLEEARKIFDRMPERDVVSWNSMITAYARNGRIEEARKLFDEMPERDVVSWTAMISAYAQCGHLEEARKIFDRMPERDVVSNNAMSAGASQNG
Assay: high-throughput RNA pulldown from lysate on Ni-NTA beads; HRP: 50 mM Tris pH 8, 150 mM NaCl, 1 mM beta-mercaptoethanol, 50 ug/ml BSA, 3 ug/ml yeast RNA, 0.5% heparin; ITC and FP: Tris pH 8, 200 mM KCl, 5% glycerol; MST: 50 mM Tris pH 8, 200 mM NaCl, 1 mM DTT, BSA, heparin, 0.05% Tween 20
Settings: tags: N-terminal His-eGFP; label: 5' IRDye 800CW
Quick reference for Kd among some binders
Put your answer as a value accompanied by its unit after it.

>  <Binder>
AUUAUACGUGA (ssRNA) [IR-rpoA-U]

>  <Kd>
152 nM

$$$$

Shift focus to the following entry.
Ask | Quickly give me recorded Kd for AUUAAACGUGA (ssRNA) [IR-rpoA-A]
Reply | 51.2 nM
